- Test system: SVR (ATCC CRL-2280, a murine endothelial cell line) tumor allograft
- TEST_DESCRIPTION: In vivo phage display panning, angiosarcoma model
- Design: species or system mouse
- CONDITIONS: tumors resected 24 h post phage injection, 3-4 rounds of panning
- Experimental: To identify peptide sequences displaying homing potential to specific tumors or to the vasculature of specific tumors, in vivo phage display panning was performed. Utilizing commercially available M13-based phage libraries (PhD-7 Prod# E8100S and PhD-C7C E8120S, New England Biolabs, Ipswich, Mass.) phage were isolated that were enriched after 3-4 rounds of panning in different tumor models. […]
Recorded Frequency of enriched sequence values for a group of substances are listed next.

SUBSTANCE	MEASURED_METRIC	RESULT
10 (FPGGYTP; Angiosarcoma homing probe) [compound 10]	Frequency of enriched sequence	11/15
11 (MFEPVLP; Angiosarcoma homing probe) [compound 11]	Frequency of enriched sequence	1/15
14 (ERVLMQV; Angiosarcoma homing probe) [compound 14]	Frequency of enriched sequence	1/15

Quick check: Frequency of enriched sequence of 13 (TSLKMQV; Angiosarcoma homing probe) [compound 13] ?
1/15

Find the recorded Frequency of enriched sequence belonging to 12 (TLSKQST; Angiosarcoma homing probe) [compound 12] and report it.
1/15
